Reported TGI by item:
Tested on: COLO 205 colon
Test: NCI tumour cell line growth inhibition, 48 h
measured-quantity: TGI

> print(dat)
                                   compound  observed.value
1  COC1C(=O)N(SC)C1c1ccccc1Cl (stereo not given)        > 100 µM
2  CC(C)(C)OC1=C(OC(C)(C)C)C(O)(c2ccc(Cl)cc2)C1=O (stereo not given)        > 100 µM
3  Cn1c(N)c(/C=C/C(=O)Oc2ccccc2)c(=O)n(C)c1=O        > 100 µM
4    COc1cc(/C=N/n2c(C)n[nH]c2=O)cc(OC)c1OC        > 100 µM
5  O=C(O)c1[nH]c2c([N+](=O)[O-])cc([N+](=O)[O-])cc2c1C(=O)O        > 100 µM

Origin of values: PubChem BioAssay (NCI)
